# experiment-notes: Acute toxicity in rats, endoperitoneal administration (LD50)
# Type: in vivo
# applied-conditions: rat, in vivo, ip, 100 mg/kg
assay-endpoint: mortality at 168 h (%)
Report as a plain number; the unit % is understood.

Req: Quick one: mortality at 168 h of Cl.Clc1ccccc1CN1CCCC1 [MRAP2, hydrochloride] ?
Resp: 5

====

# experiment-notes: Acute toxicity in mice, oral administration (LD50)
# Assay type: in vivo
# applied-conditions: mouse, in vivo, 600 mg/kg
assay-endpoint: mortality at 168 h (%)
Give the quantity in %, number only.

Req: Given the compound Cl.Clc1ccccc1CN1CCCC1 [MRAP2, hydrochloride] , what is its reported mortality at 168 h?
Resp: 60
